experiment_description: Human HepG2 cell viability assay in 384 well format
Assay type: toxicity, cell-based
Design: dose 125 nL, time 70.5 hour; concentration not given beside the values
measurement_context: HepG2 cells, read-out: Inhibition
parameter: cytotoxicity at 70.5 h (%)
The answer is to be given in %; state only the numeric part.

Here are 4 molecules together with their reported answers.
>  <molecule>
CN(C)CCNC(=O)c1ccc(S(=O)(=O)N[C@@H]2CCNC2)cc1

>  <cytotoxicity at 70.5 h [%]>
-13.7

$$$$
>  <molecule>
CC(=O)Nc1ccc(S(=O)(=O)N2CCOC(Cn3ccnc3)C2)cc1 (stereo unspecified)

>  <cytotoxicity at 70.5 h [%]>
-4.79

$$$$
>  <molecule>
c1ccc(-n2ccc(CN3CCCC3Cn3cncn3)n2)cc1 (stereo unspecified)

>  <cytotoxicity at 70.5 h [%]>
-3.62

$$$$
>  <molecule>
CC(=O)NCC1CCN(CC2CCOc3ccccc3C2)CC1 (stereo unspecified)

>  <cytotoxicity at 70.5 h [%]>
-4.25

$$$$

Suppose we examine the molecule `O=C1CCc2cc(OCCN3CCc4cncnc4C3)ccc2N1` ; what cytotoxicity at 70.5 h value has been reported?
-3.56

Try this molecule too: `CCn1cc(NC(=O)CN2CCC(Oc3ccc(F)cc3)CC2)c(C)n1`
5.01

Would you mind doing O=C1N(Cc2ccc(F)c(F)c2)CCCC1(O)CNCC1CCCCC1 (stereo unspecified) as well?
18.7

Same read-out for CCC(CO)N(Cc1cccs1)C(=O)CNS(=O)(=O)c1cccs1 (stereo unspecified) ?
-4.61

How about this molecule: `CCOc1cccc(COC(=O)c2ccc(F)cn2)n1`
-2.51

Same question for `CN(C)CCNC(=O)CNC(=O)N1CCc2c([nH]c3ccc(Cl)cc23)C1` please.
45.2

Now the molecule `COCc1cc(NCCc2ccccn2)n2nccc2n1`
29
